- study.target: GDP-loaded HIS-KRAS(G12D, aa 1-169) (Homo sapiens (Human), UniProt P01116, G12D)
- Sequence (P01116 other isoform, or with tags, fused parts or gaps G12D): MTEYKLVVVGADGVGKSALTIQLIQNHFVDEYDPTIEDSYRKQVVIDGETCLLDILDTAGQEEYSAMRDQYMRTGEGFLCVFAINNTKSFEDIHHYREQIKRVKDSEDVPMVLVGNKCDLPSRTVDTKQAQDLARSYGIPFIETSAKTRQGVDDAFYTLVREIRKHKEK
- method.summary: SOS1 catalyzed nucleotide exchange assay
- test.conditions: TR-FRET; 1.5 nM GDP-loaded HIS-KRAS(G12D), 0.5 μM SOS1 ExD, 4 hours at 25° C.
- Procedure: GDP-loaded HIS-KRAS(G12D, aa 1-169) was pre-incubated with a compound in the presence of 10 nM GDP in a 384-well plate (Greiner) for 15 min, then purified SOS1 ExD(Flag tag, aa 564-1049), BODIPY™ FL GTP (Invitrogen) and MAb(monoclonal antibody) Anti 6HIS-Tb cryptate Gold (Cisbio) were added to the assay wells (Final concentration: 1.5 nM GDP-loaded HIS-KRAS(G12D), 5 nM GDP, 0.5 μM SOS1 ExD, 80 nM BODIPY™ FL GTP, 52.5 ng/mL MAb Anti 6HIS-Tb cryptate Gold) and incubated for 4 hours at 25° C. […]
measured.metric: IC50 (nM)

{"given.smiles": "C#Cc1c(F)ccc2cc(O)cc(-c3nc4c5c(nc(OC[C@@]67CCCN6C[C@H](F)C7)nc5c3F)N3C[C@@H]5CC[C@@H](N5)[C@H]3CO4)c12", "unit.string": "nM", "result": 81}
{"given.smiles": "CN(C)CC1(COc2nc3c4c(c(Cl)c(-c5cc(O)cc6ccccc56)cc4n2)OC[C@@H]2CNCCN32)CC1", "unit.string": "nM", "result": 3860}
{"given.smiles": "CN(C)CC1(COc2nc3c4c(c(Cl)c(-c5cc(O)cc6ccccc56)cc4n2)OC[C@H]2CNCCN32)CC1", "unit.string": "nM", "result": 880}
{"given.smiles": "C#Cc1c(F)ccc2cc(O)cc(-c3cc4c5c(nc(OC[C@@]67CCCN6C[C@H](F)C7)nc5c3F)N3C[C@H]5CC[C@H](N5)[C@H]3CO4)c12", "unit.string": "nM", "result": 0.452}
{"given.smiles": "C#Cc1c(F)ccc2cc(O)cc(-c3nc4c5c(nc(OCC6(CN7CCOCC7)CC6)nc5c3F)N3C[C@H]5CC[C@H](N5)[C@H]3CO4)c12", "unit.string": "nM", "result": 0.659}
{"given.smiles": "C#Cc1cccc2cc(O)cc(-c3cc4nc(OC[C@@]56CCCN5C[C@H](F)C6)nc5c4c(c3Cl)OC[C@@H]3[C@@H]4CC[C@H](CN53)N4)c12", "unit.string": "nM", "result": 7.24}
